Assay: Therapeutic ratio of TC50 for human HepG2 cells to IC50 for human HepG2 cells under irradiation at 800 nm
Format: ADME, cell-based
Conditions: read-out: TI
compounds and their reported selectivity ratio
A bare number is all that is needed in reply.

Some solved cases for reference:
>  <query-smiles>
COCCOCCOCCOCCOCCN(C)c1ccc(/C=C2\CC/C(=C\c3ccc(N(C)CCOCCOCCOCCOCCOC)cc3)C2=O)cc1

>  <selectivity ratio>
2.79

$$$$
>  <query-smiles>
CCN(CC)c1ccc(C=C2CC(=Cc3ccc(N(CCOCCOCCOCCOC)CCOCCOCCOCCOC)cc3)C2=O)cc1

>  <selectivity ratio>
12.8

$$$$
>  <query-smiles>
COCCOCCOCCOCCN(C)c1ccc(C=C2CC(=Cc3ccc(N(C)CCOCCOCCOCCOC)cc3)C2=O)cc1

>  <selectivity ratio>
2.58

$$$$
>  <query-smiles>
CCN(CC)c1ccc(C=C2CC(=Cc3ccc(N(CCOCCOCCOCCOCCOC)CCOCCOCCOCCOCCOC)cc3)C2=O)cc1

>  <selectivity ratio>
9.13

$$$$

Quick one: selectivity ratio for CCN(CC)c1ccc(/C=C2\CC/C(=C\c3ccc(N(CCOCCOCCOCCOCCOC)CCOCCOCCOCCOCCOC)cc3)C2=O)cc1 ?
4.48

Quick one: selectivity ratio for COCCOCCOCCOCCOCCN(C)c1ccc(C=C2CC(=Cc3ccc(N(C)CCOCCOCCOCCOCCOC)cc3)C2=O)cc1 ?
2.49

* * *

Experiment: Octanol-water partition coefficient, log P of the compound
Type: physicochemical
property: logP

>  <query-smiles>
CCN(CC)c1ccc(/C=C2\CC/C(=C\c3ccc(N(CCOCCOCCOCCOCCOC)CCOCCOCCOCCOCCOC)cc3)C2=O)cc1

>  <logP>
3.2

$$$$
>  <query-smiles>
CCN(CC)c1ccc(C=C2CC(=Cc3ccc(N(CCOCCOCCOCCOCCOC)CCOCCOCCOCCOCCOC)cc3)C2=O)cc1

>  <logP>
3.04

$$$$
>  <query-smiles>
COCCOCCOCCOCCN(C)c1ccc(C=C2CC(=Cc3ccc(N(C)CCOCCOCCOCCOC)cc3)C2=O)cc1

>  <logP>
2.86

$$$$
>  <query-smiles>
COCCOCCOCCOCCOCCN(C)c1ccc(C=C2CC(=Cc3ccc(N(C)CCOCCOCCOCCOCCOC)cc3)C2=O)cc1

>  <logP>
2.54

$$$$
>  <query-smiles>
CCN(CC)c1ccc(C=C2CC(=Cc3ccc(N(CCOCCOCCOCCOC)CCOCCOCCOCCOC)cc3)C2=O)cc1

>  <logP>
3.2

$$$$
>  <query-smiles>
COCCOCCOCCOCCOCCN(C)c1ccc(/C=C2\CC/C(=C\c3ccc(N(C)CCOCCOCCOCCOCCOC)cc3)C2=O)cc1

>  <logP>
2.73

$$$$

* * *

compounds and their reported solubility
Assay: Solubility of the compound in PBS
Assay type: physicochemical

Quick one: solubility for CCN(CC)c1ccc(/C=C2\CC/C(=C\c3ccc(N(CCOCCOCCOCCOCCOC)CCOCCOCCOCCOCCOC)cc3)C2=O)cc1 ?
> 100 mg/mL

Quick one: solubility for COCCOCCOCCOCCN(C)c1ccc(C=C2CC(=Cc3ccc(N(C)CCOCCOCCOCCOC)cc3)C2=O)cc1 ?
0.3 mg/mL

Quick one: solubility for COCCOCCOCCOCCOCCN(C)c1ccc(/C=C2\CC/C(=C\c3ccc(N(C)CCOCCOCCOCCOCCOC)cc3)C2=O)cc1 ?
> 100 mg/mL

Quick one: solubility for CCN(CC)c1ccc(C=C2CC(=Cc3ccc(N(CCOCCOCCOCCOC)CCOCCOCCOCCOC)cc3)C2=O)cc1 ?
1.8 mg/mL

Quick one: solubility for CCN(CC)c1ccc(C=C2CC(=Cc3ccc(N(CCOCCOCCOCCOCCOC)CCOCCOCCOCCOCCOC)cc3)C2=O)cc1 ?
> 100 mg/mL

Quick one: solubility for COCCOCCOCCOCCOCCN(C)c1ccc(C=C2CC(=Cc3ccc(N(C)CCOCCOCCOCCOCCOC)cc3)C2=O)cc1 ?
> 100 mg/mL

* * *

Assay: Therapeutic ratio of TC50 for human HepG2 cells to IC50 for human HepG2 cells under irradiation at […]
Type: ADME, cell-based
Conditions: read-out: TI
property: selectivity ratio
A bare number is all that is needed in reply.

Some solved cases for reference:
>  <query-smiles>
COCCOCCOCCOCCOCCN(C)c1ccc(/C=C2\CC/C(=C\c3ccc(N(C)CCOCCOCCOCCOCCOC)cc3)C2=O)cc1

>  <property>
selectivity ratio

>  <val>
16

$$$$
>  <query-smiles>
CCN(CC)c1ccc(C=C2CC(=Cc3ccc(N(CCOCCOCCOCCOCCOC)CCOCCOCCOCCOCCOC)cc3)C2=O)cc1

>  <property>
selectivity ratio

>  <val>
25.5

$$$$
>  <query-smiles>
COCCOCCOCCOCCN(C)c1ccc(C=C2CC(=Cc3ccc(N(C)CCOCCOCCOCCOC)cc3)C2=O)cc1

>  <property>
selectivity ratio

>  <val>
15

$$$$
>  <query-smiles>
CCN(CC)c1ccc(/C=C2\CC/C(=C\c3ccc(N(CCOCCOCCOCCOCCOC)CCOCCOCCOCCOCCOC)cc3)C2=O)cc1

>  <property>
selectivity ratio

>  <val>
13

$$$$
>  <query-smiles>
CCN(CC)c1ccc(C=C2CC(=Cc3ccc(N(CCOCCOCCOCCOC)CCOCCOCCOCCOC)cc3)C2=O)cc1

>  <property>
selectivity ratio

>  <val>
18.9

$$$$

The record that follows has no selectivity ratio shown yet.
Quick one: selectivity ratio for COCCOCCOCCOCCOCCN(C)c1ccc(C=C2CC(=Cc3ccc(N(C)CCOCCOCCOCCOCCOC)cc3)C2=O)cc1 ?
13.6

* * *

Experiment: Dark toxicity in human HepG2 cells assessed as cell viability measured after 24 hrs by CCK-8 assay
Assay type: cell-based
Settings: read-out: TC50
property: CC50 at 24 h (µM)
Express the result in µM but write the number alone.

Some solved cases for reference:
>  <query-smiles>
COCCOCCOCCOCCOCCN(C)c1ccc(C=C2CC(=Cc3ccc(N(C)CCOCCOCCOCCOCCOC)cc3)C2=O)cc1

>  <val>
41.9

$$$$
>  <query-smiles>
COCCOCCOCCOCCOCCN(C)c1ccc(/C=C2\CC/C(=C\c3ccc(N(C)CCOCCOCCOCCOCCOC)cc3)C2=O)cc1

>  <val>
41.5

$$$$
>  <query-smiles>
CCN(CC)c1ccc(/C=C2\CC/C(=C\c3ccc(N(CCOCCOCCOCCOCCOC)CCOCCOCCOCCOCCOC)cc3)C2=O)cc1

>  <val>
20.9

$$$$
>  <query-smiles>
CCN(CC)c1ccc(C=C2CC(=Cc3ccc(N(CCOCCOCCOCCOC)CCOCCOCCOCCOC)cc3)C2=O)cc1

>  <val>
24

$$$$
>  <query-smiles>
COCCOCCOCCOCCN(C)c1ccc(C=C2CC(=Cc3ccc(N(C)CCOCCOCCOCCOC)cc3)C2=O)cc1

>  <val>
34

$$$$

The record that follows has no CC50 at 24 h shown yet.
Quick one: CC50 at 24 h for CCN(CC)c1ccc(C=C2CC(=Cc3ccc(N(CCOCCOCCOCCOCCOC)CCOCCOCCOCCOCCOC)cc3)C2=O)cc1 ?
35.9
